- System: MS2 coat protein
- assay_method_text: apparent KD of MS2 coat protein, switch ON state; designed switch direction (-1 OFF switch, 1 ON switch): -1; higher = weaker reporter binding
- condition_details: FMN input: 0 or 200 uM; Eterna round: R93 (includes R88 designs)
Would you please tag the item MET when its apparent KD of MS2 coat protein is 40 nM or above, and NOT MET when it is below?

# example entries with known answers
>  <polymer_sequence>
GGAAAACAUGAGGAUCACCCAUGUAAGGAUAUGCUAGGGAGGGAAAAAAUUUCGCCAGGCAGAAGGUACUAAAG [Janelle Amethyst 18 Mod 6 - Jieux - Exclusion 1]

>  <assigned_label>
NOT MET

$$$$
>  <polymer_sequence>
AAAGGAGCAGGAUAUACAUGAGGAUCACCCAUGUAAAAAACAUAAUAAAAGAACUUAUGUAGAAGGGCUCCAAA [69%, Moding Meechl, 10]

>  <assigned_label>
MET

$$$$
>  <polymer_sequence>
AAAAAGGCAGGAUAUACAUGAGGAUCACCCAUGUAAAAAAAAACAAGAGAAAAAAAAUGUAGAAGGGCCAAAAA [Ex3 Malc#3]

>  <assigned_label>
NOT MET

$$$$
>  <polymer_sequence>
CAGUACUGAGGAUAUACAUGAGGAUCACCCAUGUGAAAAAGCUACGAAAGUAGCACAUGUAGAAGGCAGUACUG [Ex3: 807]

>  <assigned_label>
MET

$$$$
>  <polymer_sequence>
UAUAGACAUGAGGAUCACCCAUGUGAGGAUAUCAGUGACUACAGGACAUCACGUACAAUGAGAAGGCACAGAAA [JR_Exc001_Sub015]

>  <assigned_label>
NOT MET

$$$$

Let's switch to this sequence now.
Form field: apparent KD of MS2 coat protein at least 40 nM? Entry: AAAGGACAUGAGGAUCACCCAUGUGAGGAUAUGCUCUACGAACGAAUACACAUGAGAAGCAGAAGGCACAUAAG [try 1] MET
